Experiment: Oral bioavailability in rhesus at 1 mg/kg, iv or 1 mg/kg, po
Format: ADME, organism-based, Macaca mulatta
Conditions: rhesus monkey, in vivo
readout label: bioavailability (%)
Respond numerically; units are % and should not be typed.

QUERY: // lookup bioavailability for `CC(C)(O)c1cnn2c(-c3ccc(F)c(-c4c(F)cccc4C#N)c3)cnc2n1`
RESULT: 29

###

Organism: Rattus norvegicus
Assay: Plasma concentration in rat
Format: ADME, organism-based
Settings: in vivo
readout label: concentration (nM)
The reply should be a number in nM, with the unit left off.

QUERY: Field request: concentration | item: `CC(C)(O)c1cnn2c(-c3ccc(F)c(-c4c(F)cccc4C#N)c3)cnc2n1`
RESULT: 56
